# Method: Average particle diameter of preparation (Zetasizer Nano ZS)
# Type: physicochemical
# Condition Description: average particle diameter of cationic lipid/nucleic acid complex; Example 118 preparation: compound/PEG-DMPE Na/DSPC/cholesterol with apo-b siRNA
# Particle diameter of Preparetion listing for each entry below
Respond numerically; units are nm and should not be typed.

# annotated cases, reported Particle diameter of Preparetion shown
compound="CCCCCCCC/C=C\\CCCCCCCCOCCN(CCOCCCCCCCC/C=C\\CCCCCCCC)CCC(=O)N(C)C [Compound 85]" attribute_measured="Particle diameter of Preparetion" numeric_result=120.1
compound="CCCCC/C=C\\C/C=C\\CCCCCCCCCCOC[C@@H]1CNC[C@H]1COCCCCCCCCCC/C=C\\C/C=C\\CCCCC (relative stereo) [Compound 103]" attribute_measured="Particle diameter of Preparetion" numeric_result=141.8
compound="CCCCCCCC/C=C\\CCCCCCCC(=O)OCCN(CCOC(=O)CCCCCCC/C=C\\CCCCCCCC)C(=O)CN(C)C [Compound 98]" attribute_measured="Particle diameter of Preparetion" numeric_result=124.1
compound="CCCCC/C=C\\C/C=C\\CCCCCCCCCCO[C@@H]1CN(C)C[C@H]1OCCCCCCCCCC/C=C\\C/C=C\\CCCCC [Compound 16]" attribute_measured="Particle diameter of Preparetion" numeric_result=143.2
compound="CCCCCC/C=C\\CCCCCCCCOC[C@@H]1CNC[C@H]1COCCCCCCCC/C=C\\CCCCCC (relative stereo) [Compound 44]" attribute_measured="Particle diameter of Preparetion" numeric_result=143.5

Now take the following compound into account.
Recorded Particle diameter of Preparetion of CCCCC/C=C\C/C=C\CCCCCCCCCCOCCN(C)CCOCCCCCCCCCC/C=C\C/C=C\CCCCC [Compound 79] , please.
116.5

* * *

# Particle diameter of Preparetion listing for each entry below
# Method: Average particle diameter of preparation (Zetasizer Nano ZS)
# Format: physicochemical
# Condition Description: average particle diameter of cationic lipid/nucleic acid complex; Example 118 preparation: compound/PEG-DMPE Na/DSPC/cholesterol with apo-b siRNA
Respond numerically; units are nm and should not be typed.

molecule="CCCCC/C=C\\C/C=C\\CCCCCCCCO[C@H]1CNC[C@H]1OCCCCCCCC/C=C\\C/C=C\\CCCCC [Compound 3]" attribute_measured="Particle diameter of Preparetion" numeric_result=152.8

Recorded Particle diameter of Preparetion of CCCCCCCC/C=C\CCCCCCCC(=O)OC[C@@H]1C[N+](C)(C)C[C@H]1COC(=O)CCCCCCC/C=C\CCCCCCCC.[Cl-] (relative stereo) [Compound 113] , please.
103.5

Now consider CCCCCCCC/C=C\CCCCCCCCO[C@@H]1CN(C)C[C@H]1OCCCCCCCC/C=C\CCCCCCCC [Compound 12] and answer again.
161.3

Now consider CCCC/C=C\CCCCCCCCOCCN(C)CCOCCCCCCCC/C=C\CCCC [Compound 75] and answer again.
124.0

Now consider CCCCC/C=C\C/C=C\CCCCCCCC(=O)O[C@@H]1CN(C(=O)CN)C[C@H]1OC(=O)CCCCCCC/C=C\C/C=C\CCCCC [Compound 65] and answer again.
128.9

Now consider CCCCCCCCCCCCCCCCCCOCCNCCOCCCCCCCCCCCCCCCCCC [Compound 71, bis(2-(Octadecyloxy)ethyl)amine] and answer again.
148.4

Now consider CCCCCCCC/C=C\CCCCCCCC(=O)OCCN(CCOC(=O)CCCCCCC/C=C\CCCCCCCC)C(=O)[C@@H](N)CCCCN [Compound 97] and answer again.
133.0

Now consider CCCCCCCCCCCCCCOCCN(C)CCOCCCCCCCCCCCCCC [Compound 34] and answer again.
165.7

Now consider CCCCC/C=C\C/C=C\CCCCCCCCOC[C@@H]1C[N+](C)(C)C[C@H]1COCCCCCCCC/C=C\C/C=C\CCCCC.[Cl-] (relative stereo) [Compound 112] and answer again.
119.2

Now consider CCCCC/C=C\C/C=C\CCCCCCCCO[C@@H]1CN(CC(O)COC)C[C@H]1OCCCCCCCC/C=C\C/C=C\CCCCC (some centres unmarked) [Compound 55] and answer again.
139.6

Now consider CCCCC/C=C\C/C=C\CCCCCCCCO[C@@H]1CN(CC(C)O)C[C@H]1OCCCCCCCC/C=C\C/C=C\CCCCC (some centres unmarked) [Compound 54] and answer again.
148.9

* * *

# Particle diameter of Preparetion listing for each entry below
# Method: Average particle diameter of preparation (Zetasizer Nano ZS)
# Format: physicochemical
# Condition Description: average particle diameter of cationic lipid/nucleic acid complex; Example 118 preparation: compound/PEG-DMPE Na/DSPC/cholesterol with apo-b siRNA
Respond numerically; units are nm and should not be typed.

molecule=CCCCC/C=C\C/C=C\CCCCCCCCO[C@@H]1CN(CCC(N)=O)C[C@H]1OCCCCCCCC/C=C\C/C=C\CCCCC unit_string=nm numeric_result=159.2
molecule=CCCCCC/C=C\CCCCCCCCCCO[C@@H]1CNC[C@H]1OCCCCCCCCCC/C=C\CCCCCC unit_string=nm numeric_result=134.4
molecule="CCCCC/C=C\\C/C=C\\CCCCCCCCO[C@@H]1CN(CC(O)CO)C[C@H]1OCCCCCCCC/C=C\\C/C=C\\CCCCC (stereo partly drawn)" unit_string=nm numeric_result=160.7

Recorded Particle diameter of Preparetion of CCCCCCCC/C=C\CCCCCCCC(=O)OCCN(CCOC(=O)CCCCCCC/C=C\CCCCCCCC)CC(O)CO (stereo not drawn) , please.
169.1

* * *

# Method: Average particle diameter of preparation (Zetasizer Nano ZS)
# Type: physicochemical
# Condition Description: average particle diameter of cationic lipid/nucleic acid complex; Example 118 preparation: compound/PEG-DMPE Na/DSPC/cholesterol with apo-b siRNA
# Protocol: Preparations were produced using the compounds obtained in Examples 1 to 117, as follows. APO-B siRNA was used as the nucleic acid. […] The average particle diameter of the complex between the cationic lipis and the nucleic acid in each preparation was measured with a particle diameter measurement device (Malvern; Zetasizer Nano ZS).
# Particle diameter of Preparetion listing for each entry below
Respond numerically; units are nm and should not be typed.

compound=CCCCCCCC/C=C\CCCCCCCCOCCN(CCOCCCCCCCC/C=C\CCCCCCCC)C(=O)CCN(C)C attribute_measured="Particle diameter of Preparetion" numeric_result=120.8
compound=CCCCCCCC/C=C\CCCCCCCC(=O)OCCNCCOC(=O)CCCCCCC/C=C\CCCCCCCC attribute_measured="Particle diameter of Preparetion" numeric_result=146.8
compound=CCCCCC/C=C\CCCCCCCCCCOCCN(C)CCOCCCCCCCCCC/C=C\CCCCCC attribute_measured="Particle diameter of Preparetion" numeric_result=119.7

Recorded Particle diameter of Preparetion of CCCCCCCC/C=C\CCCCCCCCCCO[C@@H]1CN(C)C[C@H]1OCCCCCCCCCC/C=C\CCCCCCCC , please.
141.7

Now consider CCCCCCCCCCCCCCO[C@@H]1CNC[C@H]1OCCCCCCCCCCCCCC and answer again.
154.2

Now consider CCCCC/C=C\C/C=C\CCCCCCCC(=O)O[C@@H]1CN(C(=O)[C@@H](N)CCCCN)C[C@H]1OC(=O)CCCCCCC/C=C\C/C=C\CCCCC and answer again.
137.4

* * *

# Method: Average particle diameter of preparation (Zetasizer Nano ZS)
# Format: physicochemical
# Condition Description: average particle diameter of cationic lipid/nucleic acid complex; Example 118 preparation: compound/PEG-DMPE Na/DSPC/cholesterol with apo-b siRNA
# Description: Preparations were produced using the compounds obtained in Examples 1 to 117, as follows. APO-B siRNA was used as the nucleic acid. […] The average particle diameter of the complex between the cationic lipis and the nucleic acid in each preparation was measured with a particle diameter measurement device (Malvern; Zetasizer Nano ZS).
Attribute Measured: Particle diameter of Preparetion (nm)
Respond numerically; units are nm and should not be typed.

compound="CCCCCCCC/C=C\\CCCCCCCCOCCNCCOCCCCCCCC/C=C\\CCCCCCCC [Compound 67, bis(2-((Z)-Octadec-9-enyloxy)ethyl)amine]" unit_string=nm numeric_result=127.6
compound=CCCCC/C=C\C/C=C\CCCCCCCCO[C@@H]1CN(C(=O)[C@@H](N)CCCN)C[C@H]1OCCCCCCCC/C=C\C/C=C\CCCCC unit_string=nm numeric_result=143.0
compound=CCCCCCCC/C=C\CCCCCCCC(=O)OCC[N+](C)(C)CCOC(=O)CCCCCCC/C=C\CCCCCCCC.[Cl-] unit_string=nm numeric_result=103.4

Recorded Particle diameter of Preparetion of CCCCCCCC/C=C\CCCCCCCC(=O)O[C@@H]1CN(C(=O)CN(C)C)C[C@H]1OC(=O)CCCCCCC/C=C\CCCCCCCC , please.
135.2

Now consider CCCCCCCCCCCCCCCCO[C@@H]1CN(C)C[C@H]1OCCCCCCCCCCCCCCCC and answer again.
136.3
